# method: Half life in CD1 mouse at 10 mg/kg, ip administered as bolus dose
# Assay type: ADME, organism-based
# Set-up: dose 10 mg/kg, route intraperitoneal
# settings: in vivo
endpoint: half-life (h)

smilesText | u | valueMeasured
Cn1c(=O)c2c(-c3ccccc3)n3c(c2n(C)c1=O)[C@H](c1ccc(Br)o1)Oc1ccc(C(=O)O)cc1-3 | h | 1.6

----------
# measurementTarget: Cystic fibrosis transmembrane conductance regulator (Homo sapiens)
# Sequence (P13569 whole entry): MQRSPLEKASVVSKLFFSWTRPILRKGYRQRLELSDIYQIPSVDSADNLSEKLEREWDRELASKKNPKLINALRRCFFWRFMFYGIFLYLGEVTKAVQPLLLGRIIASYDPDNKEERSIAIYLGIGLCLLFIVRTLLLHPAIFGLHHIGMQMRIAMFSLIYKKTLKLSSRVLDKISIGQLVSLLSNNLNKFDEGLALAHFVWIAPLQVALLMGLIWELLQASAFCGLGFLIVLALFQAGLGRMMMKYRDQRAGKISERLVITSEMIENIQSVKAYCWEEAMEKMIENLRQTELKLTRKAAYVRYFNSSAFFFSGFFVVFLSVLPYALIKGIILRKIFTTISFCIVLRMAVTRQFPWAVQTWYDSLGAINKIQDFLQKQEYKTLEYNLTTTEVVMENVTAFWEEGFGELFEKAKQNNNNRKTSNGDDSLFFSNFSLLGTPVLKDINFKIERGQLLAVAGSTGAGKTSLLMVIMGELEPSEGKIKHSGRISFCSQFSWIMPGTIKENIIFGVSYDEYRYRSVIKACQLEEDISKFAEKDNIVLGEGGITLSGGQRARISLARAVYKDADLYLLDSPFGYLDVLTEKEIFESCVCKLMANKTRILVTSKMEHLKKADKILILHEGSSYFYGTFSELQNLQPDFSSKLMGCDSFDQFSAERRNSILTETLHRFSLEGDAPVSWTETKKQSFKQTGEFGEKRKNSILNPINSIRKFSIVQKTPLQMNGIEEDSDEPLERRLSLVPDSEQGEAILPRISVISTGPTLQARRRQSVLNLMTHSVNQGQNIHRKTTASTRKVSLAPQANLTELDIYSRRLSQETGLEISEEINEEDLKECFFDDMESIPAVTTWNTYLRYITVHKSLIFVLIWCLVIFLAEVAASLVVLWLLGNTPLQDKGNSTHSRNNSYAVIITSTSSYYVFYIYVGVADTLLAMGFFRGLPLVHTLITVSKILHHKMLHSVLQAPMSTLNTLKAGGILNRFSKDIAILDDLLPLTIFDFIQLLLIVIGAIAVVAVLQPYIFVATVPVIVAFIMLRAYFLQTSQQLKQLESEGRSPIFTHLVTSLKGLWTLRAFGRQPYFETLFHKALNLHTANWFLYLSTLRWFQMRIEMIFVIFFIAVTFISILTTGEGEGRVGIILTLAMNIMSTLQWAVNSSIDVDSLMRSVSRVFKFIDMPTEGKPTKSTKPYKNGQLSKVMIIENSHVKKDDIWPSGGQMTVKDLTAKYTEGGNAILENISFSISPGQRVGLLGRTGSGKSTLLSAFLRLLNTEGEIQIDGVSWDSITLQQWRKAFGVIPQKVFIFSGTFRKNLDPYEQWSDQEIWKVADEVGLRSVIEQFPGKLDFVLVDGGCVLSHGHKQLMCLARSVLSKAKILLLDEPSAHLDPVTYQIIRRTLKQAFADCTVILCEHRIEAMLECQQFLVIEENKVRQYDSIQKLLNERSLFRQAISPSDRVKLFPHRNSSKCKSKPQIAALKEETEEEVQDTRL
# method: Inhibition of wild type human CFTR chloride conductance expressed in forskolin-stimulated rat FRT cells by short-circuit current analysis in presence of transepithelial chloride gradient
endpoint: IC50

smilesText | endpoint | valueMeasured
CC(C)N.Cn1c(=O)c2c(-c3ccccc3)n3c(c2n(C)c1=O)[C@H](c1ccc(Br)o1)Oc1ccc(C(=O)O)cc1-3 | IC50 | 4 nM

The reported numbers originate from ChEMBL document CHEMBL2384965.
